Literature roundup of Tyrosine-protein kinase JAK3 (Homo sapiens, UniProt P52333) data, read-out IC50.

The cases that follow already have their IC50 on record.
compound=O=C(Nc1cccc(-c2cnc3ccccc3n2)c1)c1ccco1 result="> 50000 nM"
compound=CCS(=O)(=O)NC(=O)[C@H]1C[C@H](NC(=O)c2nn(C)c3c2CN(c2ncnc4[nH]ccc24)CC3)C1 result="100 to 500 nM"
compound=Cc1ccncc1-c1cc2c(N[C@@H]3CC[C@](C)(N)C3(C)C)c(C(N)=O)cnn2c1 result="6.1 nM"
compound=Cc1nc2cnc(-n3cnc4ccc(OC(F)(F)F)cc43)nc2n1C1CCOCC1 result="< 100 nM"
compound=CCS(=O)(=O)N(C)c1ccccc1CNc1nc(-c2cc(F)c(O)cc2CC(F)(F)F)cc2[nH]nc(C(N)=O)c12 result="156 nM"
compound=CN(c1ncnc2[nH]ccc12)C1CC2(C1)CN(C(=O)c1ccc(C#N)cc1Cl)C2 result="1000 to 10000 nM"
compound=CS(=O)(=O)N(CC#N)c1ccc(-c2ccnc(Nc3ccc(N4CCOCC4)c(F)c3)n2)cc1 result="> 1000 nM"
compound=Cc1ccc(NC(=O)c2cc(-n3cnc(CN(C)C)c3)cc(C(F)(F)F)c2)cc1-c1ccc2c(c1)[nH]c1ncncc12 result="≤ 500 nM"
compound=C[C@@H](Nc1c(C(N)=O)cnn2cc(-n3ccccc3=O)cc12)C(C)(C)C result="48.4 nM"
compound=C=CC(=O)Nc1cccc(Nc2cc(Nc3ccc(OCc4cccc(F)c4)c(Cl)c3)ncn2)c1 result="1000 to 10000 nM"

Record lookup: for Tyrosine-protein kinase JAK3 (Homo sapiens, UniProt P52333), what IC50 belongs to C=CC(=O)Nc1cccc(Oc2nc(Nc3ccc(N4CCN(C(C)C)CC4)cc3)nc3ccoc23)c1 ? ≤ 50 nM

Record lookup: for Tyrosine-protein kinase JAK3 (Homo sapiens, UniProt P52333), what IC50 belongs to N#CCC(=O)N1CCC[C@@H](Nc2c(-c3nc(C(N)=O)co3)cnc3[nH]ccc23)C1 ? ≤ 10 nM

Record lookup: for Tyrosine-protein kinase JAK3 (Homo sapiens, UniProt P52333), what IC50 belongs to CC1(C)[C@H](Nc2c(C(N)=O)cnn3cc(-c4ccc(F)nc4)cc23)CC[C@]1(C)C(N)=O ? 1.9 nM

Record lookup: for Tyrosine-protein kinase JAK3 (Homo sapiens, UniProt P52333), what IC50 belongs to CNC(=O)c1n[nH]c2cc(-c3cc(F)c(O)cc3CC(F)(F)F)nc(NCc3cc(C)cnc3N(C)S(C)(=O)=O)c12 ? 72.8 nM

Record lookup: for Tyrosine-protein kinase JAK3 (Homo sapiens, UniProt P52333), what IC50 belongs to Cn1cc(-c2cc3nccn3c(-c3cnn(C(CCO)C4CCCC4)c3)n2)cn1 (stereo not shown) ? > 1000 nM

Record lookup: for Tyrosine-protein kinase JAK3 (Homo sapiens, UniProt P52333), what IC50 belongs to Cc1cnc2nc1NCCCCCNC(=O)c1ccc(cc1Cl)-c1cnc(F)c(c1)N2 ? 1000 to 10000 nM

====

Literature roundup of UniProt P52333 data, read-out pIC50.
pIC50: −log10 of the molar value.

compound="Fc1ccc2ncn(-c3ncc4c(n3)C([C@@H]3CCOc5ccccc53)C(CCl)=N4)c2c1 (some centres unmarked)" quantity_name=pIC50 result="> 7.00"
compound=CC(=O)SCC(=O)Nc1cccc(-c2cnc3ccccc3n2)c1 quantity_name=pIC50 result="< 5.00"
compound="CCOC(=O)c1cnc2[nH]ccc2c1N[C@@H]1CC[C@@H](O)C1 (single isomer, unassigned)" quantity_name=pIC50 result="7.00 to 8.00"
compound="Cn1cc(-c2cc3nccn3c(-c3cnn(C(CC#N)C4CCC4)c3)n2)cn1 (centres unmarked)" quantity_name=pIC50 result="< 6.00"
compound=N#Cc1ccc2ncn(-c3nc(NCCCN)c4[nH]c(=O)n(C5CCOCC5)c4n3)c2c1 quantity_name=pIC50 result="> 7.00"
compound=NC(=O)c1cccc(-c2cnc3[nH]cc(C(=O)c4cccc(O)c4F)c3c2)c1 quantity_name=pIC50 result="≥ 5.00"
compound=Cc1cnc2nc1NCCCCCNC(=O)c1ccc(cc1N)-c1cnc(F)c(c1)N2 quantity_name=pIC50 result="5.00 to 6.00"
compound=CC#CC(=O)N1CC(Cn2nc(-c3ccc(Oc4ccccc4)cc3)c3cncnc32)C1 quantity_name=pIC50 result="< 6.30"
compound=C=CC(=O)Nc1cccc(Oc2nc(Nc3ccc(C(=O)NC4CCN(C)CC4)c(C)c3)nc3ccsc23)c1 quantity_name=pIC50 result="≥ 7.30"
compound="N#CCC(C1CC1)n1cc(-c2nc(C(=O)NC3CCC3)cc3nccn23)cn1 (centres unmarked)" quantity_name=pIC50 result="< 6.00"

Form field: reported pIC50 of CCC(C(=O)Nc1nccc2c(-c3nc(Nc4cn(C)nc4OC)ncc3F)c[nH]c12)N1CCN(C)CC1 (centres unmarked) > 6.30

Form field: reported pIC50 of CC#CC(=O)N1CCC[C@H]1Cn1nc(-c2ccc(Oc3ccccc3)cc2)c2c(N)ncnc21 < 5.00

Form field: reported pIC50 of CN(c1ncc(Cl)cc1CNc1nc(-c2cc(F)c(O)cc2CC(F)(F)F)cc2[nH]nc(C(N)=O)c12)S(C)(=O)=O 6.70

Form field: reported pIC50 of CC(C)(C)NS(=O)(=O)c1cccc(N2CCc3cnc(Nc4ccc(OCCN5CCCCC5)cc4)nc32)c1 5.91

Form field: reported pIC50 of CCOC(=O)c1cnc2[nH]ccc2c1-c1cnn(C(CC#N)C2CCCC2)c1 (racemic) 7.00 to 8.00

Form field: reported pIC50 of C[C@@H]1CCCC[C@H]1n1cc(-c2nc(-c3cnn(C[C@H](O)CO)c3)cn3nccc23)cn1 (single isomer, unassigned) 5.00 to 6.00

Form field: reported pIC50 of CCC(=O)N1CCC[C@@H](Nc2n[nH]c3nccc(Oc4ccc(-c5nc6ccccc6s5)cc4)c23)C1 < 5.00

====

Literature roundup of Tyrosine-protein kinase JAK3 (Homo sapiens, UniProt P52333) data, read-out IC50.

The cases that follow already have their IC50 on record.
compound_structure_string=CCC(=O)c1cnc(Nc2ncc(CN3CCCC3)cc2F)cc1Nc1cccc(-c2ncn(C)n2)c1OC result="≥ 500 nM"
compound_structure_string=O=c1[nH]c2c(-c3cncnc3)nc(-n3cnc4ccc(F)cc43)nc2n1C1CCOCC1 result="< 100 nM"
compound_structure_string=C=CC(=O)N1CCC[C@@H]1Cn1nc(-c2ccc(Oc3ccccc3)cc2)c2cncnc21 result="> 500 nM"

Record lookup: for Tyrosine-protein kinase JAK3 (Homo sapiens, UniProt P52333), what IC50 belongs to C=CC(=O)Nc1cccc(-c2nc(Nc3cccc(N4CCOCC4)c3)nc3[nH]ncc23)c1 ? 66.6 nM

Record lookup: for Tyrosine-protein kinase JAK3 (Homo sapiens, UniProt P52333), what IC50 belongs to CN(C)S(=O)(=O)CCNC(=O)c1noc2c1CN(c1ncnc3[nH]ccc13)CC2 ? 100 to 500 nM

Record lookup: for Tyrosine-protein kinase JAK3 (Homo sapiens, UniProt P52333), what IC50 belongs to O=c1[nH]c2c(N3CC(F)(F)C(F)(F)C3)nc(-n3cnc4ccc(F)cc43)nc2n1C1CCOCC1 ? < 100 nM

Record lookup: for Tyrosine-protein kinase JAK3 (Homo sapiens, UniProt P52333), what IC50 belongs to Cn1cc(-c2cc3nccn3c(-c3cnn(C4(CC#N)CN(C(=O)CC(F)(F)F)C4)c3)n2)cn1 ? 100 to 1000 nM

Record lookup: for Tyrosine-protein kinase JAK3 (Homo sapiens, UniProt P52333), what IC50 belongs to CC[C@H](Cn1ccc2cnc(Nc3cnn(CC(=O)O[C@H]4CCN(C)C4)c3)nc21)C(C)C ? < 100 nM

====

pIC50: −log10 of the molar value.
Literature roundup of Tyrosine-protein kinase JAK3 (Homo sapiens) data, read-out pIC50.

compound=Cc1ccc(NC(=O)c2cc(C(F)(F)F)cc(C(F)(F)F)c2)cc1-c1ccc2c(c1)[nH]c1ncncc12 result="≥ 6.30"
compound="CCC(=O)c1cnc(Nc2cc(C(C)N(C)C)ncn2)cc1Nc1cccc(-c2ncn(C)n2)c1OC (centres unmarked)" result="≤ 6.30"
compound=N#Cc1ccc2ncn(-c3nc(NC4CCC4)c4[nH]c(=O)n(C5CCOCC5)c4n3)c2c1 result="> 7.00"
compound=[O-][n+]1ccc(-c2nc3cnc(-n4cnc5ccc(F)cc54)nc3n2C2CCOCC2)cc1 result="6.00 to 7.00"
compound=Nc1ncnc2c1c(-c1ccc(Oc3ccccc3)cc1)nn2C[C@@H]1CCCN1C(=O)/C=C/CN1CCOCC1 result="< 5.00"
compound=O=C(NCCC(F)(F)F)c1noc2c1CN(c1ncnc3[nH]cnc13)CC2 result="6.30 to 7.00"

Record lookup: for Tyrosine-protein kinase JAK3 (Homo sapiens), what pIC50 belongs to CCC(CC)n1cc(-c2nc(-c3cnn(C4CN(C(=O)C5CC5)C4)c3)cn3nccc23)cn1 ? 5.00 to 6.00

Record lookup: for Tyrosine-protein kinase JAK3 (Homo sapiens), what pIC50 belongs to C=CC(=O)Nc1cccc(Oc2nc(Nc3ccc(N4CCN(C(C)C)CC4)cc3)nc3ccsc23)c1 ? ≥ 7.30
